Provenance of the data: PubChem BioAssay (NCATS)

assay: BET inhibitor-based combinations targeting novel dependencies in MECOM-rearranged (r) AML: UCSD-AML1 cell line (AID 2202235); settings: UCSD-AML1 AML cells viability, CellTiter-Glo, 48 h; series mostly up to 46 µM; further: nearly all actives have a fitted effect of over 40% in size
Records with an inconclusive call do not appear. Activity calls are given as the source filed them. The call rests on the fitted dose curve; in most records, active means well fitted inhibition curve with a large enough effect; inconclusive means small, poorly fitted or top-dose-only effect; inactive means no such curve, though single readings can be large or run the other way.
Outcome (select one): active, inactive

Completed entries (count: 8):
>>> print(df.to_string())
                                   compound       cat
0  c1cc(-c2cnn3cc(-c4ccc(N5CCNCC5)cc4)cnc23)c2cccnc2c1    active
1  COc1ccc(-c2oc3c(CC=C(C)C)c(O)cc(O)c3c(=O)c2O)cc1  inactive
2  CCOc1ccc(Nc2nc(-c3c(C)nc4ccccn34)cs2)cc1    active
3  CC(C)(C)NCC(O)c1ccc(O)c(CO)c1 (stereo not given)  inactive
4    Nc1ncnc2c1c(COc1cccc(Cl)c1)nn2C1CCOCC1  inactive
5              O=C(O)c1nc(=O)[nH]c(=O)[nH]1  inactive
6  CN(C)c1cccc(-c2c3c(=O)n(-c4ccccc4Cl)[nH]c3cc(=O)n2C)c1  inactive
7  Cc1nc(Nc2ncc(C(=O)Nc3c(C)cccc3Cl)s2)cc(N2CCN(CCO)CC2)n1    active

Prompt: Outcome? COc1ccc(CCN(C)CCCC(C#N)(c2ccc(OC)c(OC)c2)C(C)C)cc1OC (stereo not given)
Response: active

Prompt: Would you mind telling me which call this test gave CCCN[C@H]1CCc2nc(N)sc2C1 ?
Response: inactive

Prompt: What did the test return for C[N+](C)([O-])CCNc1ccc(NCC[N+](C)(C)[O-])c2c1C(=O)c1c(O)ccc(O)c1C2=O ?
Response: active

Prompt: How did this test come out for NC(=O)C1CCCc2c1[nH]c1ccc(Cl)cc21 (stereo not given) ?
Response: inactive

Prompt: Hi team, can someone confirm the assay call for N=C(N)c1ccc2cc(OC(=O)c3ccc(N=C(N)N)cc3)ccc2c1 ?
Response: active

Prompt: I'd appreciate the recorded outcome for CCN(CC)CCOc1ccc(Nc2ncc3cc(-c4c(Cl)cccc4Cl)c(=O)n(C)c3n2)cc1 from this test.
Response: active

Prompt: Any idea what this test logged for Cc1c(C)c2c(c(C)c1O)CCC(C)(COc1ccc(CC3SC(=O)NC3=O)cc1)O2 (stereo not given) ?
Response: inactive

Prompt: Which outcome did this test record for the compound O=[N+]([O-])c1ccc(-c2nc(-c3ccc(F)cc3)c(-c3ccncc3)[nH]2)cc1 ?
Response: inactive

Prompt: Hi team, can someone confirm the assay call for CC[C@H](C=C[C@@H](C)[C@H]1CC[C@H]2[C@@H]3CC=C4C[C@@H](O)CC[C@]4(C)[C@@H]3CC[C@]12C)C(C)C ?
Response: inactive

Prompt: State the result this test recorded for OC(c1ccc(-c2ccc(CN3CCN(Cc4ccncc4)CC3)cc2)c(F)c1)(C(F)(F)F)C(F)(F)F .
Response: inactive

Prompt: Assay result, entry O=C(Nc1cccnc1)N1CCC(Cc2cccc(Oc3ccc(C(F)(F)F)cn3)c2)CC1 — outcome?
Response: active

Prompt: Would you mind telling me which call this test gave COc1cc(OC)c(C(=O)CCCN2CCCC2)c(OC)c1 ?
Response: inactive

Prompt: What outcome does the record of this test show for Nc1nc(F)nc2c1ncn2[C@@H]1O[C@H](CO)[C@@H](O)[C@@H]1O ?
Response: active

Prompt: Identify the outcome logged in this assay for the compound shown: CC(C)n1nc(-c2cc3cc(O)ccc3[nH]2)c2c(N)ncnc21
Response: active

Prompt: Tell me the recorded outcome of this test for C[C@H](c1ccc(F)cc1CCCC(=O)O)N(c1cc(F)ccc1F)S(=O)(=O)c1ccc(Cl)cc1 .
Response: inactive

Prompt: Short answer needed: outcome of this test for CC[C@@H](C)[C@H](NC(=O)[C@H](CC1CCCCC1)NC(=O)c1ccno1)C(=O)N1CCC2(CCc3ccccc32)CC1 ?
Response: inactive

Prompt: Would you mind telling me which call this test gave O=C(c1ccc(C(=O)N2CCC(N3CCCC3)CC2)c(Nc2ccccc2)c1)N1CCC(N2CCCC2)CC1 ?
Response: inactive

Prompt: Answer briefly: the call reported for COc1cc2nc(-c3cc(F)ccc3O)nc(N[C@@H]3CNC[C@H]3C(C)(C)O)c2cc1OC in this assay.
Response: active

Prompt: Which outcome was assigned to CC[C@@]1(O)C(=O)OCc2c1cc1n(c2=O)Cc2cc3cc(O)ccc3nc2-1 in this test?
Response: active

Prompt: Write down the call the test reported for this compound. Item: NS(=O)(=O)NCCNc1nonc1C(=Nc1ccc(F)c(Br)c1)NO
Response: inactive

Prompt: # outcome recorded in this test, key = CNC(=O)[C@H](Cc1ccccc1)NC(=O)[C@H](CC(C)C)[C@H](CSc1cccs1)C(=O)NO
Response: inactive
